Give composite z-score for every item shown.
Assay: small-molecule microarray binders of probe aWnt5a, primary screen, biochemical, biotinylated probe, 635/667 nm fluorescence (AID 1113);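 also: score merges 667 nm fluorescence intensity with signal-to-noise per printed feature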
Conditions: higher = more signal
# print the numeric value only

Q: composite z-score lookup needed for Cc1ccc(C2CC=C(C(=O)O)CN2S(=O)(=O)c2ccc(C)cc2)cc1 (configuration not stated) , thanks.
A: 0.0018

Q: composite z-score lookup needed for COc1ccc(O[C@H]2C=C[C@@H](c3ccccc3)O[C@@H]2COC(=O)CCC(C)=NOC(C)CN2CCCCc3nc(C)c(C)cc32)cc1 (some centres not stated) , thanks.
A: -0.157

Q: composite z-score lookup needed for `C=C(COC)/C(=C/C[C@H](OC(=O)c1ccncc1)c1ccc(CO)o1)c1cc(C(=O)OC)ccc1OC` , thanks.
A: -0.0107

Q: composite z-score lookup needed for `O=C1O[C@@H](c2ccccc2)[C@@H](c2ccccc2)N2[C@@H](c3ccc(OCCO)cc3)[C@]3(C(=O)Nc4ccccc43)[C@@H](C(=O)N3CCN(c4ncccn4)CC3)[C@H]12` , thanks.
A: -0.0685

Q: composite z-score lookup needed for `O=C1C2=CC[C@H]3C(=O)N(Cc4ccc5c(c4)OCO5)C(=O)[C@H]3[C@H]2[C@H](O)[C@@H]2O[C@H]12` , thanks.
A: -0.0495

Q: composite z-score lookup needed for `COCCCNC(=O)[C@]1(CCC(=O)OC(C)(C)C)N=C(c2ccc(OCCCO)cc2)O[C@@H]1c1ccccc1N=[N+]=[N-]` , thanks.
A: 0.183

Q: composite z-score lookup needed for `NCCCCCNC(=O)[C@@H]1C[C@@H]2C(=O)N3CCC[C@H]3C(=O)N2[C@@H]1c1cccc(OCCO)c1` , thanks.
A: 0.0024

Q: composite z-score lookup needed for `O=C1[C@H]2[C@H]3[C@H](O)[C@H](O)CC(=NOCc4ccccc4)[C@H]3CC[C@H]2C(=O)N1C[C@@H]1CCCO1` , thanks.
A: -0.0685

Q: composite z-score lookup needed for `CC(C)CN1CCc2nc(-c3ccccc3)c3c(c2CC1)CO[C@@H](C)C3` , thanks.
A: 0.027

Q: composite z-score lookup needed for `O=C1C[C@@H](O)[C@@H](O)[C@@H]2[C@@H]3C(=O)N(c4cccc(Oc5ccccc5)c4)C(=O)[C@@H]3CC[C@@H]12` , thanks.
A: -0.0327

Q: composite z-score lookup needed for `COCCCNC(=O)[C@@]1(C)c2ccccc2C(=O)N(Cc2ccc(OC(F)(F)F)cc2)[C@H]1c1ccc(CO)cc1` , thanks.
A: -0.109

Q: composite z-score lookup needed for `C=C(CCCC)C(=O)CC[C@@H](OC(C)=O)c1cccc(OCCO)c1` , thanks.
A: -0.12

Q: composite z-score lookup needed for `O=C1c2ccccc2[C@@]2(Cc3ccccc3N(C3CC3)C2=O)[C@H](c2ccc(CO)cc2)N1Cc1ccccc1C(F)(F)F` , thanks.
A: -0.154

Q: composite z-score lookup needed for `COCCCNC(=O)[C@]1(Cc2ccccc2)N=C(c2ccc(OCCCO)cc2)O[C@@H]1c1ccccc1` , thanks.
A: 0.201

Q: composite z-score lookup needed for CCOc1ccc(N2C(=O)/C(=C/C=C/c3ccccc3OC)S(=O)(=O)C2c2cccc([N+](=O)[O-])c2)cc1 (configuration not stated) , thanks.
A: 0.0017

Q: composite z-score lookup needed for `O=C(NN=C1C[C@@H](O)[C@@H](O)[C@@H]2[C@@H]3C(=O)N(c4ccc(F)cc4F)C(=O)[C@@H]3CC[C@@H]12)OCc1ccccc1` , thanks.
A: 0.0354

Q: composite z-score lookup needed for `COc1cccc([C@@H]2Oc3ccc(Br)cc3C(=O)[C@H]2O)c1` , thanks.
A: -0.124

Q: composite z-score lookup needed for `COc1ccc(O[C@H]2C=C[C@@H](c3ccccc3)O[C@@H]2COC(=O)N2CCCCC2)cc1` , thanks.
A: -0.0512

Q: composite z-score lookup needed for `CC=CC1=C(CO)[C@H](O)[C@H]2O[C@H]2[C@H]1O` , thanks.
A: -0.0758

Q: composite z-score lookup needed for `CCCC[C@H]1OB(O)C[C@H]2C1=C(C)C[C@H]1C(=O)N(C)C(=O)[C@H]12` , thanks.
A: -0.0462

Q: composite z-score lookup needed for CCc1cc2c(nc1CC)CCN(CCC(C)=NOC(C)CN1CCCc3nc(C)c(C)cc31)C2 (configuration not stated) , thanks.
A: 0.245

Q: composite z-score lookup needed for `C[C@H](c1ccccc1)N1C(=O)[C@H]2[C@@H]3C(=CC[C@H]2C1=O)C(=O)[C@H]1O[C@H]1[C@H]3O` , thanks.
A: -0.0405

Q: composite z-score lookup needed for `C#CCCCON=C1C[C@@H](O)[C@@H](O)[C@@H]2[C@@H]3C(=O)N(Cc4ccccc4)C(=O)[C@@H]3CC[C@H]12` , thanks.
A: -0.154

Q: composite z-score lookup needed for `C#CCCCON=C1C[C@@H](O)[C@@H](O)[C@@H]2[C@@H]3C(=O)N(CCC(=O)OCC)C(=O)[C@@H]3CC[C@@H]12` , thanks.
A: -0.0748

Q: composite z-score lookup needed for COCCNC(=O)OCC1CCCC2(CC(OC(=O)NCCc3ccc(F)cc3)CC(CCC(=O)N[C@@H](C)C(=O)OC)O2)O1 (some centres not stated) , thanks.
A: -0.0643

Q: composite z-score lookup needed for `CCCC[C@@H]1C[C@H]1[C@@H](NS(=O)(=O)c1cccc2cccnc12)c1ccc(-c2ccccc2)cc1` , thanks.
A: 0.138

Q: composite z-score lookup needed for `CCOC(=O)NN=C1C[C@@H](O)[C@@H](O)[C@@H]2[C@@H]3C(=O)N(C4CCCCC4)C(=O)[C@@H]3CC[C@@H]12` , thanks.
A: -0.0462

Q: composite z-score lookup needed for `CC(CCC(=O)OC[C@H]1O[C@H](C#Cc2ccccc2)C=C[C@@H]1Oc1ccc(C)cc1)=NOC[C@@H](O)COCc1ccco1` , thanks.
A: -0.426

Q: composite z-score lookup needed for `CCOC(=O)NN=C1C[C@@H](O)[C@@H](O)[C@@H]2[C@@H]3C(=O)N(C(C)(C)C)C(=O)[C@@H]3CC[C@@H]12` , thanks.
A: -0.278

Q: composite z-score lookup needed for `CC(C)NC(=O)[C@@]1(C)c2ccccc2C(=O)N(Cc2cc(F)cc(C(F)(F)F)c2)[C@H]1c1ccc(CO)cc1` , thanks.
A: -0.0165

Q: composite z-score lookup needed for `C[C@@H]1C=CCC(=O)OC[C@H](C)C(=O)OC[C@H]2O[C@H]1C=C[C@H]2O` , thanks.
A: -0.228

Q: composite z-score lookup needed for `COc1ccc(OC[C@H]2Cc3c(-c4ccccc4)nc4c(c3CO2)CN(CCOc2ccccc2)CC4)cc1` , thanks.
A: -0.0399

Where do these numbers come from? They come from PubChem BioAssay.
